Tested on: 885512-296-R-J2-PDC complex spheroid viability
METHOD NOTES: Anticancer human tumor 885512-296-R-J2-PDC patient-derived breast carcinoma cell line growth inhibition; active = viability on the fitted dose curve at most 10% of control; inactive = the rest
CONDITION: second compound 1 µM; first compound 1 µM
Possible outcomes: T (active), F (inactive)

>>> discrete_label("CC1COCCN1c1cc(-c2ccnn2C)c2ccnc(-c3ccn[nH]3)c2n1 (centres undefined) + NC1CCC(NC2CC2c2ccccc2)CC1")
"T"
>>> discrete_label("COc1cc(Nc2ncc3c(n2)-c2ccc(Cl)cc2C(c2c(F)cccc2OC)=NC3)ccc1C(=O)O + NC1CCC(NC2CC2c2ccccc2)CC1")
"F"
>>> discrete_label("CC1COCCN1c1cc(C2(S(C)(=N)=O)CC2)nc(-c2ccnc3[nH]ccc23)n1 (centres undefined) + NC1CCC(NC2CC2c2ccccc2)CC1")
"T"
>>> discrete_label("COc1cc(Nc2ncc3c(n2)-c2ccc(Cl)cc2C(c2c(F)cccc2OC)=NC3)ccc1C(=O)O + NC1CC1c1ccc(-c2cccc(O)c2)cc1")
"F"

----------
Tested on: 885512-296-R-J2-PDC complex spheroid viability
METHOD NOTES: Anticancer human tumor 885512-296-R-J2-PDC cell line growth inhibition;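 note: spheroids exposed to agents for 7 days before viability read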
CONDITION: second compound 0.316 µM; first compound 0.01 µM; stronger effect = lower value
REPORTED PROPERTY: viability, T/C (%)

>>> result("COc1cc(Nc2ncc3c(n2)-c2ccc(Cl)cc2C(c2c(F)cccc2OC)=NC3)ccc1C(=O)O + NC1CCC(NC2CC2c2ccccc2)CC1")
31.3
>>> result("O=C(C=Cn1cnc(-c2cc(C(F)(F)F)cc(C(F)(F)F)c2)n1)NNc1cnccn1 + NC1CCC(NC2CC2c2ccccc2)CC1")
6.98
>>> result("Nc1ncn(C2CC(O)C(CO)O2)c(=O)n1 (centres undefined) + NC1CC1c1ccc(-c2cccc(O)c2)cc1")
112
>>> result("CC1COCCN1c1cc(-c2ccnn2C)c2ccnc(-c3ccn[nH]3)c2n1 (centres undefined) + NC1CCC(NC2CC2c2ccccc2)CC1")
10.9
>>> result("Cn1ncnc1C1c2n[nH]c(=O)c3cc(F)cc(c23)NC1c1ccc(F)cc1 (centres undefined) + NC1CC1c1ccc(-c2cccc(O)c2)cc1")
89.2
>>> result("CC(C)CC(NC(=O)C(Cc1ccccc1)NC(=O)c1cnccn1)B(O)O (centres undefined) + NC1CCC(NC2CC2c2ccccc2)CC1")
0.43
>>> result("CC[C@@]1(O)C(=O)OCc2c1cc1n(c2=O)Cc2cc3c(CN(C)C)c(O)ccc3nc2-1 + NC1CC1c1ccc(-c2cccc(O)c2)cc1")
2.93
>>> result("CC1COCCN1c1cc(-c2ccnn2C)c2ccnc(-c3ccn[nH]3)c2n1 (centres undefined) + NC1CC1c1ccc(-c2cccc(O)c2)cc1")
3.06
>>> result("CC(C)CC(NC(=O)CNC(=O)c1cc(Cl)ccc1Cl)B1OC(=O)CC(CC(=O)O)(C(=O)O)O1 (centres undefined) + NC1CCC(NC2CC2c2ccccc2)CC1")
23.3

----------
Test system: 885512-296-R-J2-PDC complex spheroid viability
METHOD NOTES: Anticancer human tumor 885512-296-R-J2-PDC cell line growth inhibition;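 note: spheroids exposed to agents for 7 days before viability read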
CONDITION: second compound 0.316 µM; first compound 0.316 µM; stronger effect = lower value
Label Yes when viability, T/C < 30%; otherwise No.

>>> discrete_label("O=C(c1cc(Cc2n[nH]c(=O)c3ccccc23)ccc1F)N1CCN(C(=O)C2CC2)CC1 + NC1CC1c1ccc(-c2cccc(O)c2)cc1")
"No"
>>> discrete_label("COc1ccc([C@@H](O)c2cc(-c3ncnc4cc(N5CCOCC5)ccc34)c(F)cc2Cl)nn1 + NC1CCC(NC2CC2c2ccccc2)CC1")
"No"
>>> discrete_label("COc1ccc([C@@H](O)c2cc(-c3ncnc4cc(N5CCOCC5)ccc34)c(F)cc2Cl)nn1 + NC1CC1c1ccc(-c2cccc(O)c2)cc1")
"No"
>>> discrete_label("CC1(C)CCC(CN2CCN(c3ccc(C(=O)NS(=O)(=O)c4ccc(NCC5CCOCC5)c([N+](=O)[O-])c4)c(Oc4cnc5[nH]ccc5c4)c3)CC2)=C(c2ccc(Cl)cc2)C1 + NC1CCC(NC2CC2c2ccccc2)CC1")
"No"
>>> discrete_label("CC1COCCN1c1cc(-c2ccnn2C)c2ccnc(-c3ccn[nH]3)c2n1 (stereo not drawn) + NC1CCC(NC2CC2c2ccccc2)CC1")
"Yes"
>>> discrete_label("Nc1ncn(C2CC(O)C(CO)O2)c(=O)n1 (stereo not drawn) + NC1CC1c1ccc(-c2cccc(O)c2)cc1")
"Yes"
>>> discrete_label("CC1COCCN1c1cc(-c2ccnn2C)c2ccnc(-c3ccn[nH]3)c2n1 (stereo not drawn) + NC1CC1c1ccc(-c2cccc(O)c2)cc1")
"Yes"
>>> discrete_label("CC1(C)CCC(CN2CCN(c3ccc(C(=O)NS(=O)(=O)c4ccc(NCC5CCOCC5)c([N+](=O)[O-])c4)c(Oc4cnc5[nH]ccc5c4)c3)CC2)=C(c2ccc(Cl)cc2)C1 + NC1CC1c1ccc(-c2cccc(O)c2)cc1")
"No"
>>> discrete_label("O=C(c1cc(Cc2n[nH]c(=O)c3ccccc23)ccc1F)N1CCN(C(=O)C2CC2)CC1 + NC1CCC(NC2CC2c2ccccc2)CC1")
"No"
>>> discrete_label("CC(C)c1c(-c2ccccc2)nc2c(C#N)c[nH]n2c1=O + NC1CCC(NC2CC2c2ccccc2)CC1")
"No"
>>> discrete_label("CC1COCCN1c1cc(C2(S(C)(=N)=O)CC2)nc(-c2ccnc3[nH]ccc23)n1 (stereo not drawn) + NC1CC1c1ccc(-c2cccc(O)c2)cc1")
"No"
>>> discrete_label("O=C(C=Cn1cnc(-c2cc(C(F)(F)F)cc(C(F)(F)F)c2)n1)NNc1cnccn1 + NC1CCC(NC2CC2c2ccccc2)CC1")
"Yes"
>>> discrete_label("Nc1ncn(C2CC(O)C(CO)O2)c(=O)n1 (stereo not drawn) + NC1CCC(NC2CC2c2ccccc2)CC1")
"Yes"
>>> discrete_label("COc1cc(Nc2ncc3c(n2)-c2ccc(Cl)cc2C(c2c(F)cccc2OC)=NC3)ccc1C(=O)O + NC1CC1c1ccc(-c2cccc(O)c2)cc1")
"Yes"
>>> discrete_label("COc1cc(Nc2ncc3c(n2)-c2ccc(Cl)cc2C(c2c(F)cccc2OC)=NC3)ccc1C(=O)O + NC1CCC(NC2CC2c2ccccc2)CC1")
"Yes"
>>> discrete_label("O=C(C=Cn1cnc(-c2cc(C(F)(F)F)cc(C(F)(F)F)c2)n1)NNc1cnccn1 + NC1CC1c1ccc(-c2cccc(O)c2)cc1")
"Yes"
>>> discrete_label("CC(C)c1c(-c2ccccc2)nc2c(C#N)c[nH]n2c1=O + NC1CC1c1ccc(-c2cccc(O)c2)cc1")
"No"
>>> discrete_label("CC1COCCN1c1cc(C2(S(C)(=N)=O)CC2)nc(-c2ccnc3[nH]ccc23)n1 (stereo not drawn) + NC1CCC(NC2CC2c2ccccc2)CC1")
"Yes"
